Test system: E. coli
Protocol summary: CLSI overnight reference method MIC of antimicrobials against E. coli strains
Assay type: cell-based
Study conditions: E. coli strain Clinical Sample 1; unit assumed
Measure name: MIC (CLSI Ref) (µg/mL)
One number for each entry, in µg/mL.

CC1(C)S[C@@H]2[C@H](NC(=O)[C@H](N)c3ccccc3)C(=O)N2[C@H]1C(=O)O : 4
NCC[C@H](O)C(=O)N[C@@H]1C[C@H](N)[C@@H](O[C@H]2O[C@H](CN)[C@@H](O)[C@H](O)[C@H]2O)[C@H](O)[C@H]1O[C@H]1O[C@H](CO)[C@@H](O)[C@H](N)[C@H]1O : 4

Consider now this further compound.
MIC (CLSI Ref) lookup needed for CC(C)(O/N=C(\C(=O)N[C@@H]1C(=O)N2C(C(=O)[O-])=C(C[n+]3ccccc3)CS[C@H]12)c1csc(N)n1)C(=O)O , thanks.
0.25

----------
System: E. coli
Protocol summary: CLSI overnight reference method MIC of antimicrobials against E. coli strains
Type: cell-based
Study conditions: E. coli strain BEI 4.097; unit assumed
Measure name: MIC (CLSI Ref) (µg/mL)
Answers are plain numbers, in µg/mL.

Example cases with answers are listed next.
NC[C@H]1O[C@H](O[C@H]2[C@H](O)[C@@H](O[C@H]3O[C@H](CO)[C@@H](O)[C@H](N)[C@H]3O)[C@H](N)C[C@@H]2N)[C@H](N)C[C@@H]1O : 1
NCC[C@H](O)C(=O)N[C@@H]1C[C@H](N)[C@@H](O[C@H]2O[C@H](CN)[C@@H](O)[C@H](O)[C@H]2O)[C@H](O)[C@H]1O[C@H]1O[C@H](CO)[C@@H](O)[C@H](N)[C@H]1O : 4

Moving on to another molecule below.
Fill in the blank: the reported MIC (CLSI Ref) of C[C@@H](O)[C@H]1C(=O)N2C(C(=O)O)=C(S[C@@H]3CN[C@H](C(=O)Nc4cccc(C(=O)O)c4)C3)[C@H](C)[C@H]12 is ____.
0.008

----------
Tested on: E. coli
Protocol summary: CLSI overnight reference method MIC of antimicrobials against E. coli strains
Assay type: cell-based
Study conditions: E. coli strain Clinical Sample 8; unit assumed
Could you please report measured MIC (CLSI Ref) for the items listed next?

C[C@@H](O)[C@H]1C(=O)N2C(C(=O)O)=C(SCCN=CN)C[C@H]12 : 0.5 µg/mL
C[C@H]1COc2c(N3CCN(C)CC3)c(F)cc3c(=O)c(C(=O)O)cn1c23 : < 0.06 µg/mL
C[C@@H](O)[C@H]1C(=O)N2C(C(=O)O)=C(S[C@@H]3CN[C@H](C(=O)Nc4cccc(C(=O)O)c4)C3)[C@H](C)[C@H]12 : 0.25 µg/mL

Which MIC (CLSI Ref) value belongs to C[C@H]1[C@H](NC(=O)/C(=N\OC(C)(C)C(=O)O)c2csc(N)n2)C(=O)N1S(=O)(=O)O ?
64 µg/mL

----------
Exercise: for every item that follows, state its recorded MIC (CLSI Ref).
Tested on: E. coli
Protocol summary: CLSI overnight reference method MIC of antimicrobials against E. coli strains
Format: cell-based
Study conditions: E. coli strain Clinical Sample 7; unit assumed
Answers are plain numbers, in µg/mL.

CC(C)(O/N=C(\C(=O)N[C@@H]1C(=O)N2C(C(=O)[O-])=C(C[n+]3ccccc3)CS[C@H]12)c1csc(N)n1)C(=O)O : 0.25
NCC[C@H](O)C(=O)N[C@@H]1C[C@H](N)[C@@H](O[C@H]2O[C@H](CN)[C@@H](O)[C@H](O)[C@H]2O)[C@H](O)[C@H]1O[C@H]1O[C@H](CO)[C@@H](O)[C@H](N)[C@H]1O : 2
CN(C)[C@@H]1C(=O)C(C(N)=O)=C(O)[C@@]2(O)C(=O)C3=C(O)c4c(O)cccc4[C@@](C)(O)[C@H]3C[C@@H]12 : 4
C[C@@H](O)[C@H]1C(=O)N2C(C(=O)O)=C(S[C@@H]3CN[C@H](C(=O)Nc4cccc(C(=O)O)c4)C3)[C@H](C)[C@H]12 : 0.008

Here is the next item to consider.
Bench note: what MIC (CLSI Ref) did NC[C@H]1O[C@H](O[C@H]2[C@H](O)[C@@H](O[C@H]3O[C@H](CO)[C@@H](O)[C@H](N)[C@H]3O)[C@H](N)C[C@@H]2N)[C@H](N)C[C@@H]1O show?
1

----------
System: E. coli
Protocol summary: CLSI overnight reference method MIC of antimicrobials against E. coli strains
Format: cell-based
Study conditions: E. coli strain Clinical Sample 8; unit assumed
Measure name: MIC (CLSI Ref) (µg/mL)
Give bare numbers, in µg/mL.

CN(C)[C@@H]1C(=O)C(C(N)=O)=C(O)[C@@]2(O)C(=O)C3=C(O)c4c(O)cccc4[C@@](C)(O)[C@H]3C[C@@H]12 [TET, Tetracycline] : 8

Hi! Can you tell me MIC (CLSI Ref) for each of these compounds?
1. NC[C@H]1O[C@H](O[C@H]2[C@H](O)[C@@H](O[C@H]3O[C@H](CO)[C@@H](O)[C@H](N)[C@H]3O)[C@H](N)C[C@@H]2N)[C@H](N)C[C@@H]1O [TOB, Tobramycin]
2. NCC[C@H](O)C(=O)N[C@@H]1C[C@H](N)[C@@H](O[C@H]2O[C@H](CN)[C@@H](O)[C@H](O)[C@H]2O)[C@H](O)[C@H]1O[C@H]1O[C@H](CO)[C@@H](O)[C@H](N)[C@H]1O [AMK, Amikacin]
3. CO/N=C(\C(=O)N[C@@H]1C(=O)N2C(C(=O)O)=C(CSc3nc(=O)c(=O)[nH]n3C)CS[C@H]12)c1csc(N)n1 [CRO, Ceftriaxone]

1. 2
2. 4
3. 64

----------
Can you tell me MIC (CLSI Ref) for the items I'm about to list?
Tested on: E. coli
Protocol summary: CLSI overnight reference method MIC of antimicrobials against E. coli strains
Format: cell-based
Study conditions: E. coli strain Clinical Sample 1; unit assumed
Answers are plain numbers, in µg/mL.

The examples below pair each entry with its known result.
C[C@@H](O)[C@H]1C(=O)N2C(C(=O)O)=C(S[C@@H]3CN[C@H](C(=O)Nc4cccc(C(=O)O)c4)C3)[C@H](C)[C@H]12 [ERT, Ertapenem] : 0.008
NC[C@H]1O[C@H](O[C@H]2[C@H](O)[C@@H](O[C@H]3O[C@H](CO)[C@@H](O)[C@H](N)[C@H]3O)[C@H](N)C[C@@H]2N)[C@H](N)C[C@@H]1O [TOB, Tobramycin] : 2

# input compound: CN(C)[C@@H]1C(=O)C(C(N)=O)=C(O)[C@@]2(O)C(=O)C3=C(O)c4c(O)cccc4[C@@](C)(O)[C@H]3C[C@@H]12 [TET, Tetracycline] ; wanted: its MIC (CLSI Ref)
4

----------
Tested on: E. coli
Protocol summary: CLSI overnight reference method MIC of antimicrobials against E. coli strains
Type: cell-based
Study conditions: E. coli strain BEI 4.097; unit assumed
Measure name: MIC (CLSI Ref) (µg/mL)
Answers are plain numbers, in µg/mL.

The cases that follow already have their MIC (CLSI Ref) on record.
CC(C)(O/N=C(\C(=O)N[C@@H]1C(=O)N2C(C(=O)[O-])=C(C[n+]3ccccc3)CS[C@H]12)c1csc(N)n1)C(=O)O : 0.25
CC1(C)S[C@@H]2[C@H](NC(=O)[C@H](N)c3ccccc3)C(=O)N2[C@H]1C(=O)O : 4

Attention now shifts to the item below.
Reported MIC (CLSI Ref) for E. coli, given CN(C)[C@@H]1C(=O)C(C(N)=O)=C(O)[C@@]2(O)C(=O)C3=C(O)c4c(O)cccc4[C@@](C)(O)[C@H]3C[C@@H]12 ?
32

----------
System: E. coli
Protocol summary: CLSI overnight reference method MIC of antimicrobials against E. coli strains
Type: cell-based
Study conditions: E. coli strain Clinical Sample 5; unit assumed
For each record, write down the corresponding MIC (CLSI Ref).

CC1(C)S[C@@H]2[C@H](NC(=O)[C@H](N)c3ccccc3)C(=O)N2[C@H]1C(=O)O : > 32 µg/mL
C[C@@H](O)[C@H]1C(=O)N2C(C(=O)O)=C(S[C@@H]3CN[C@H](C(=O)N(C)C)C3)[C@H](C)[C@H]12 : < 0.06 µg/mL
C[C@H]1[C@H](NC(=O)/C(=N\OC(C)(C)C(=O)O)c2csc(N)n2)C(=O)N1S(=O)(=O)O : < 0.25 µg/mL
CC(C)(O/N=C(\C(=O)N[C@@H]1C(=O)N2C(C(=O)[O-])=C(C[n+]3ccccc3)CS[C@H]12)c1csc(N)n1)C(=O)O : 0.25 µg/mL
NCC[C@H](O)C(=O)N[C@@H]1C[C@H](N)[C@@H](O[C@H]2O[C@H](CN)[C@@H](O)[C@H](O)[C@H]2O)[C@H](O)[C@H]1O[C@H]1O[C@H](CO)[C@@H](O)[C@H](N)[C@H]1O : 4 µg/mL

Consider the following items and state reported MIC (CLSI Ref) for each.
1. NC[C@H]1O[C@H](O[C@H]2[C@H](O)[C@@H](O[C@H]3O[C@H](CO)[C@@H](O)[C@H](N)[C@H]3O)[C@H](N)C[C@@H]2N)[C@H](N)C[C@@H]1O
2. C[C@H]1COc2c(N3CCN(C)CC3)c(F)cc3c(=O)c(C(=O)O)cn1c23
3. C[C@@H](O)[C@H]1C(=O)N2C(C(=O)O)=C(S[C@@H]3CN[C@H](C(=O)Nc4cccc(C(=O)O)c4)C3)[C@H](C)[C@H]12
4. CN(C)[C@@H]1C(=O)C(C(N)=O)=C(O)[C@@]2(O)C(=O)C3=C(O)c4c(O)cccc4[C@@](C)(O)[C@H]3C[C@@H]12
5. CO/N=C(\C(=O)N[C@@H]1C(=O)N2C(C(=O)O)=C(CSc3nc(=O)c(=O)[nH]n3C)CS[C@H]12)c1csc(N)n1
6. C[C@@H](O)[C@H]1C(=O)N2C(C(=O)O)=C(SCCN=CN)C[C@H]12

1. 1 µg/mL
2. > 8 µg/mL
3. 0.008 µg/mL
4. > 32 µg/mL
5. < 0.12 µg/mL
6. < 0.12 µg/mL
